Consider the following sequences and their measured shrunken log2 fold change readings.
tested on: Escherichia coli TOP10; assay: shrunken log2 fold change of peptide-encoding DNA abundance (4.5 h post-induction vs induction); higher = less antimicrobial activity (less host growth inhibition); settings: time post-induction: 4.5 h; library: site-saturation at positions 5, 18, 19, 20;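 note: peptides expressed intracellularly from a pBAD plasmid library in pooled LB shake-flask culture, induced with 0.3% L-arabinose, DNA abundance read by NGS, three biological replicates, DESeq2 with apeglm shrinkage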
Lab note: record the figure alone, no unit after it.

Q: Item `RRIRARPPRLPRPRPRPWSPPRP` has what recorded shrunken log2 fold change?
A: 0.138

Q: Okay, and `RRIRIRPPRLPRPRPRPLDMPRP` ?
A: -0.285

Q: Also `RRIRLRPPRLPRPRPRPAYWPRP` , if possible.
A: 0.154
